Target: Nuclear receptor subfamily 1 group I member 3 (Homo sapiens) (UniProt Q14994)
Sequence (Q14994 whole entry, looked up): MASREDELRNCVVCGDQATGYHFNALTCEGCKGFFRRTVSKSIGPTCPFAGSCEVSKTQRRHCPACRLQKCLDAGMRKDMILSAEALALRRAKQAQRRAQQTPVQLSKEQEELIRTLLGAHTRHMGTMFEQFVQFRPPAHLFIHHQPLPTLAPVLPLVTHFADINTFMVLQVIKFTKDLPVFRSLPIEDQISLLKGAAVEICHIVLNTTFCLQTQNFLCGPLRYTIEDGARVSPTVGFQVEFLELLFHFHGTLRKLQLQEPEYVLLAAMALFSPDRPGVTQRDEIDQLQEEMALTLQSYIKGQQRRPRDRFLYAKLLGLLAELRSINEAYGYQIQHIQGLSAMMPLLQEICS
Test: qHTS assay to identify small molecule agonists of the constitutive androstane receptor (CAR) signaling pathway (AID 1224839); further: nearly all actives have a fitted effect of over 15% in size;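 on activation: HepG2 cells stably carrying human CAR and a CYP2B6 luciferase reporter; on the % scale 0 is the no-effect control and ±100 the full control effect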
Details: HepG2 hCAR CYP2B6-luciferase, agonist mode, 24 h; series mostly up to 92.4 µM
Inconclusive results are not listed. The source made the active and inactive calls. The call rests on the fitted dose curve; in most records, active means well fitted activation curve with a large enough effect in the repeat runs; inconclusive means weak or mixed curves; inactive means no such curve, though single readings can be large or run the other way.
Classes used: YES = active, NO = inactive

INSERT INTO results (compound, target_under_test, assigned_label) VALUES
  ('CS(=O)(=O)c1ccc(C(=O)C2C(=O)CCCC2=O)c(Cl)c1COCC(F)(F)F', 'Nuclear receptor subfamily 1 group I member 3 (Homo sapiens) (UniProt Q14994)', 'NO'),
  ('S=C=S', 'Nuclear receptor subfamily 1 group I member 3 (Homo sapiens) (UniProt Q14994)', 'NO'),
  ('COc1ccc2c(C(=O)c3ccc(Cl)cc3)c(C)n(CC(=O)O)c2c1', 'Nuclear receptor subfamily 1 group I member 3 (Homo sapiens) (UniProt Q14994)', 'NO'),
  ('CC1N=C(N)OC1c1ccccc1 (stereo unspecified)', 'Nuclear receptor subfamily 1 group I member 3 (Homo sapiens) (UniProt Q14994)', 'NO'),
  ('O=[N+]([O-])CCO', 'Nuclear receptor subfamily 1 group I member 3 (Homo sapiens) (UniProt Q14994)', 'NO'),
  ('[O-][Br+2]([O-])O', 'Nuclear receptor subfamily 1 group I member 3 (Homo sapiens) (UniProt Q14994)', 'NO'),
  ('O=C(O)C(F)(F)C(F)(F)C(F)(F)C(F)(F)C(F)(F)C(F)(F)F', 'Nuclear receptor subfamily 1 group I member 3 (Homo sapiens) (UniProt Q14994)', 'NO'),
  ('COC(=O)c1ccc(CBr)cc1', 'Nuclear receptor subfamily 1 group I member 3 (Homo sapiens) (UniProt Q14994)', 'YES'),
  ('O=C(Cl)c1ccccc1', 'Nuclear receptor subfamily 1 group I member 3 (Homo sapiens) (UniProt Q14994)', 'NO'),
  ('C(COCC1CO1)OCC1CO1 (stereo unspecified)', 'Nuclear receptor subfamily 1 group I member 3 (Homo sapiens) (UniProt Q14994)', 'NO'),
  ('CCN[C@H](C)Cc1cccc(C(F)(F)F)c1', 'Nuclear receptor subfamily 1 group I member 3 (Homo sapiens) (UniProt Q14994)', 'NO'),
  ('Cl/C=C/CCl', 'Nuclear receptor subfamily 1 group I member 3 (Homo sapiens) (UniProt Q14994)', 'NO'),
  ('COc1ccc(C=O)cc1O', 'Nuclear receptor subfamily 1 group I member 3 (Homo sapiens) (UniProt Q14994)', 'NO'),
  ('ClCC1CO1 (stereo unspecified)', 'Nuclear receptor subfamily 1 group I member 3 (Homo sapiens) (UniProt Q14994)', 'NO'),
  ('CNC(=O)NC(O)C(Cl)(Cl)Cl (stereo unspecified)', 'Nuclear receptor subfamily 1 group I member 3 (Homo sapiens) (UniProt Q14994)', 'NO'),
  ('CCC(C)C(C)(COC(N)=O)COC(N)=O (stereo unspecified)', 'Nuclear receptor subfamily 1 group I member 3 (Homo sapiens) (UniProt Q14994)', 'NO');

###

Test: Caspase-3/7 induction in CHO-K1 cells by small molecules, qHTS assay (AID 1346980); further: on the % scale 0 is the no-effect control and ±100 the full control effect; nearly all actives have a fitted effect of over 15% in size
Conditions: CHO-K1 caspase-3/7 induction, Caspase-Glo luminescence, 17 h; series mostly up to 92.4 µM
Calls of active or inactive are those of the source. Calls follow the shape of the dose curve; as a rule, active = well fitted activation curve with a large enough effect in the repeat runs; inconclusive = weak or mixed curves; inactive = flat fitted curve, though single readings scatter.
readout-label: caspase-3/7 activation

INSERT INTO measurements (molecule, readout_label, recorded_result) VALUES
  ('CCOC(=O)N(C)N=O', 'caspase-3/7 activation', 'inactive'),
  ('ClCC1CO1 (configuration not stated)', 'caspase-3/7 activation', 'inactive'),
  ('CC(C)(C)C(=O)C(Cl)Cl', 'caspase-3/7 activation', 'inactive'),
  ('C#CCOC(=O)/C=C(C)/C=C/CC(C)CCCC(C)C (configuration not stated)', 'caspase-3/7 activation', 'inactive'),
  ('CCC(C)(C#N)N=NC(C)(C#N)CC (configuration not stated)', 'caspase-3/7 activation', 'inactive'),
  ('O=[N+]([O-])c1cccc(CCl)c1', 'caspase-3/7 activation', 'inactive'),
  ('CCCCCCC(=O)CCCCCC/C=C/C[C@@H](O)[C@H](O)[C@@](N)(CO)C(=O)O', 'caspase-3/7 activation', '2.67% [at 19 µM] (inactive)'),
  ('C=C1C[C@@H]2[C@H](CC[C@]3(C)C(=O)CC[C@@H]23)[C@@]2(C)C=CC(=O)C=C12', 'caspase-3/7 activation', 'inactive'),
  ('ClCCCCCCCl', 'caspase-3/7 activation', 'inactive'),
  ('CCCCCCCCSC(=O)Oc1cc(Cl)nnc1-c1ccccc1', 'caspase-3/7 activation', 'inactive'),
  ('S=C=S', 'caspase-3/7 activation', 'inactive'),
  ('C=C1CC[C@@]2(O)[C@H]3Cc4ccc(O)c5c4[C@@]2(CCN3CC2CC2)[C@H]1O5', 'caspase-3/7 activation', 'inactive');

###

Target: Retinoic acid receptor RXR-alpha (Homo sapiens)
Assay: qHTS assay to identify small molecule agonists of the RXR signaling pathway (AID 1159527); further: on the % scale 0 is the no-effect control and ±100 the full control effect; nearly all actives have a fitted effect of over 35% in size
Conditions: HEK293T RXRa-UAS-bla, beta-lactamase ratio, 16 h; series mostly up to 76.8 µM
Results filed as inconclusive are left out. Activity calls are given as the source filed them. Calls follow the shape of the full dose curve.
readout-label: outcome

INSERT INTO assay_data (compound, recorded_result) VALUES
  ('CC(C)c1ccc(O)cc1', 'inactive'),
  ('ClCOCCl', 'inactive'),
  ('O=[N+]([O-])c1cccc(CCl)c1', 'inactive'),
  ('ClCC1CO1 (centres undefined)', 'inactive'),
  ('CCC(C)(C#N)N=NC(C)(C#N)CC (centres undefined)', 'inactive'),
  ('O=c1[nH]c2ccccc2n1C1CCNCC1', 'inactive'),
  ('CCCC(C)(COC(N)=O)COC(N)=O', 'inactive'),
  ('O=C(O)c1c(Cl)ccc2cc(Cl)cnc12', 'inactive'),
  ('C=C1CC[C@@]2(O)[C@H]3Cc4ccc(O)c5c4[C@@]2(CCN3CC2CC2)[C@H]1O5', 'inactive'),
  ('[O-][Br+2]([O-])O', 'inactive'),
  ('[P]#[In]', 'inactive'),
  ('CC(C)(C1CCC(O)CC1)C1CCC(O)CC1 (centres undefined)', 'inactive'),
  ('CN(C)C(=O)Oc1cc(OC(=O)N(C)C)cc(C(O)CNC(C)(C)C)c1 (centres undefined)', 'inactive'),
  ('N[C@@H](Cc1ccc(Oc2cc(I)c(O)c(I)c2)c(I)c1)C(=O)O', 'inactive');

###

Assay: qHTS assay to identify small molecule antagonists of the estrogen receptor alpha (ER-alpha) signaling pathway using the BG1 cell line in the presence of 0.1 nM 17-beta-estradiol - cell viability counter screen (AID 1259241); further: on the % scale 0 is the no-effect control and ±100 the full control effect; nearly all actives have a fitted effect of over 40% in size
Conditions: VM7Luc4E2 (BG1) viability, CellTiter-Fluor protease, 22 h, 0.1 nM estradiol agonist added; series mostly up to 92.4 µM
Source text: National Center for Advancing Translational Sciences [NCATS] NIH Chemical Genomics Center [NCGC] U.S. Environmental Protection Agency [EPA] National Institutes of Environmental Health Sciences [NIEHS] National Toxicology Program [NTP] U.S. Food and Drug Administration [FDA] Estrogen receptor (ER), a member of the nuclear hormone receptor plays an important role in development, metabolic homeostasis and reproduction. […]
Results filed as inconclusive are left out. Calls of active or inactive are those of the source. The call rests on the fitted dose curve; in most records, active means well fitted cell-killing curve with a large enough effect in the repeat runs; inconclusive means weak or mixed curves, or effect the other way; inactive means flat fitted curve, though single readings scatter.
readout-label: activity change, negative = cytotoxicity

INSERT INTO results (compound, readout_label, recorded_result) VALUES
  ('[O-][Br+2]([O-])O', 'activity change, negative = cytotoxicity', 'inactive'),
  ('CCN[C@@H](C)Cc1ccccc1', 'activity change, negative = cytotoxicity', 'inactive'),
  ('COP(=O)(OC)O/C(C)=C/C(=O)N(C)C', 'activity change, negative = cytotoxicity', 'inactive'),
  ('N#CN=C1SCCN1Cc1ccc(Cl)nc1', 'activity change, negative = cytotoxicity', 'inactive'),
  ('CN(C)CCc1c[nH]c2cccc(OP(=O)(O)O)c12', 'activity change, negative = cytotoxicity', 'inactive'),
  ('N[C@@H](Cc1ccc(Oc2cc(I)c(O)c(I)c2)c(I)c1)C(=O)O', 'activity change, negative = cytotoxicity', 'inactive'),
  ('C=CC1(C)OC(=O)N(c2cc(Cl)cc(Cl)c2)C1=O (centres undefined)', 'activity change, negative = cytotoxicity', 'inactive'),
  ('O=CCCl', 'activity change, negative = cytotoxicity', 'inactive'),
  ('CCC(C)(C#N)N=NC(C)(C#N)CC (centres undefined)', 'activity change, negative = cytotoxicity', 'inactive'),
  ('NNC(N)=O', 'activity change, negative = cytotoxicity', 'inactive'),
  ('CCOC1Oc2ccc(OS(C)(=O)=O)cc2C1(C)C (centres undefined)', 'activity change, negative = cytotoxicity', 'inactive'),
  ('CC(C)[C@]12CC(=O)[C@H](C)[C@H]1C2', 'activity change, negative = cytotoxicity', 'inactive'),
  ('C=CCC1(C(C)CC)C(=O)NC(=O)NC1=O (centres undefined)', 'activity change, negative = cytotoxicity', 'inactive'),
  ('CCCC(C)C1(CC)C(=O)N=C(S)NC1=O (centres undefined)', 'activity change, negative = cytotoxicity', 'inactive');
